Attribute: pIC50
- target: Wee1 kinase domain (Homo sapiens)
- Construct: Wee1 kinase domain was purchased from Carna (catalog #05-177); purchased Carna 05-177
- protocol details: Wee1 Kinase Biochemical Assay (ADP-Glo)
- experimental context: Wee1 kinase domain, 15 uM ATP, ADP-Glo
pIC50: −log10 of the molar value.

The cases that follow already have their pIC50 on record.
compound	pIC50
CN[C@H]1CCN(c2ccc(Nc3ncc4c(n3)N(c3cccc(N5C(=O)OC[C@@H]5C)n3)[C@H]3CC(C)(C)OC[C@@]43C)cc2)C1 (single isomer, unassigned)	7.00 to 8.00
CC1(C)C[C@@H]2N(c3cccc(N=S(C)(C)=O)n3)c3nc(Nc4ccc(C5CNC5)c(F)c4)ncc3[C@]2(C)CO1 (single isomer, unassigned)	6.00 to 7.00
CN(C)C(=O)c1ccc(Nc2ncc3c(n2)N(c2cccc(N=S(C)(C)=O)n2)[C@@H]2CC(C)(C)OC[C@]32C)cc1 (single isomer, unassigned)	> 8.00
CN1CCC[C@H](n2cc(Nc3ncc4c(n3)N(c3cccc(N=S(C)(C)=O)n3)[C@@H]3CC(C)(C)OC[C@]43C)cn2)C1 (single isomer, unassigned)	> 8.00
C[C@H]1COC(=O)N1c1cccc(N2c3nc(Nc4ccc(N5C[C@H]6C[C@@H]5CN6C)c(F)c4)ncc3[C@]3(C)COC(C)(C)C[C@H]23)n1 (single isomer, unassigned)	> 8.00
CNCc1cccc(N2c3nc(Nc4ccc(C5(C)COC5)cc4)ncc3[C@@]3(C)COC(C)(C)C[C@@H]23)n1 (single isomer, unassigned)	> 8.00
CN1C[C@H]2C[C@@H]1CN2c1ccc(Nc2ncc3c(n2)N(c2cccc(N=S(C)(C)=O)n2)[C@H]2CC(C)(C)OC[C@@]32C)cc1 (single isomer, unassigned)	6.00 to 7.00
C[C@H]1COC(=O)N1c1cccc(N2c3nc(Nc4cn(C5CCN(C)CC5)nn4)ncc3[C@]3(C)COC(C)(C)C[C@H]23)n1 (single isomer, unassigned)	6.00 to 7.00

### Prompt Give a short answer stating reported pIC50 for [2H]C([2H])([2H])N1CCC(c2ccc(Nc3ncc4c(n3)N(c3cccc(N=S(C)(C)=O)n3)[C@@H]3CC(C)(C)OC[C@]43C)cc2)CC1 (single isomer, unassigned) .
### Response > 8.00

### Prompt Give a short answer stating reported pIC50 for CNCc1cccc(N2c3nc(Nc4ccc([C@H]5CC(=O)N(C)C5)cc4)ncc3[C@@]3(C)COC(C)(C)C[C@@H]23)n1 (single isomer, unassigned) .
### Response > 8.00

###

- target: Wee1 kinase domain (Homo sapiens, UniProt P30291)
- Construct: Wee1 kinase domain was purchased from Carna (catalog #05-177); purchased Carna 05-177
- Sequence (P30291 299-569 limits assumed): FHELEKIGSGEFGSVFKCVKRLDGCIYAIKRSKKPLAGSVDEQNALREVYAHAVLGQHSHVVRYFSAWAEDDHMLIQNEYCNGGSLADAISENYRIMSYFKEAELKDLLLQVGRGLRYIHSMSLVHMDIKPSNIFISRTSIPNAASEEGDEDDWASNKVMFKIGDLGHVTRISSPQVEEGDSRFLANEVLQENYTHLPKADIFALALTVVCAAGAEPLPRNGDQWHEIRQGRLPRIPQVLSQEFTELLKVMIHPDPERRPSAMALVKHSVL
- protocol details: Wee1 Kinase Biochemical Assay (ADP-Glo)
- experimental context: Wee1 kinase domain, 15 uM ATP, ADP-Glo
measurement type: IC50

compound	target	result
CNCc1cccc(N2c3nc(Nc4ccc(N5CCOCC5)c(C)c4)ncc3[C@@]3(C)COC(C)(C)C[C@@H]23)n1 (single isomer, unassigned) [Example 26]	Wee1 kinase domain (Homo sapiens, UniProt P30291)	< 10 nM
CC1(C)C[C@@H]2N(c3cccc(N=S(C)(C)=O)n3)c3nc(Nc4ccc([C@@H]5CCCN5)nc4)ncc3[C@]2(C)CO1 (single isomer, unassigned) [Example 213]	Wee1 kinase domain (Homo sapiens, UniProt P30291)	10 to 100 nM

Now look at this one.
### Prompt State IC50 on Wee1 kinase domain (Homo sapiens, UniProt P30291). Entry: CNCc1cccc(N2c3nc(Nc4ccc(C(C)(C)C)cc4)ncc3[C@]3(C)COC(C)(C)C[C@H]23)n1 (single isomer, unassigned) [Example 74]
### Response 10 to 100 nM

###

- target: Wee1 kinase domain (Homo sapiens, UniProt P30291)
- Construct: Wee1 kinase domain was purchased from Carna (catalog #05-177); purchased Carna 05-177
- protocol details: Wee1 Kinase Biochemical Assay (ADP-Glo)
- experimental context: class symbols; 1 nM Wee1 enzyme, 15 uM ATP, 4 hours at 25° C.
Attribute: IC50

The cases that follow already have their IC50 on record.
molecule	IC50
CNCc1cccc(N2c3nc(Nc4ccc(-c5cnn(C)c5)nc4)ncc3[C@]3(C)COC(C)(C)C[C@H]23)n1 (single isomer, unassigned) [Example 459]	100 to 1000 nM
CNCc1cccc(N2c3nc(Nc4cccc(N5CCOCC5)c4)ncc3[C@]3(C)COC(C)(C)C[C@H]23)n1 (single isomer, unassigned) [Example 469]	100 to 1000 nM
CC1(C)C[C@H]2N(c3cccc(N4CCOC4=O)n3)c3nc(Nc4ccc([C@H]5CNCC5(F)F)cc4)ncc3[C@@]2(C)CO1 [Example 682]	< 10 nM
CC1(C)C[C@H]2N(c3cccc(N=S(C)(C)=O)n3)c3nc(Nc4ccc5nccn5c4)ncc3[C@@]2(C)CO1 (single isomer, unassigned) [Example 504]	< 10 nM
CCn1ccc(N2c3nc(Nc4ccc(N5CCN(C)CC5)cc4)ncc3[C@@]3(C)COC(C)(C)C[C@@H]23)n1 (single isomer, unassigned) [Example 744]	< 10 nM

Now look at this one.
### Prompt State IC50 on Wee1 kinase domain (Homo sapiens, UniProt P30291). Entry: CN1CCC(c2ccc(Nc3ncc4c(n3)N(c3cccc(N=S(C)(C)=O)c3)[C@@H]3CC(C)(C)OC[C@]43C)cn2)CC1 [Example 710]
### Response < 10 nM

###

- target: Wee1 kinase domain (Homo sapiens, UniProt P30291)
- Construct: Wee1 kinase domain was purchased from Carna (catalog #05-177); purchased Carna 05-177
- protocol details: Wee1 Kinase Biochemical Assay (ADP-Glo)
- experimental context: Wee1 kinase domain, 15 uM ATP, ADP-Glo
Attribute: IC50

### Prompt Give a short answer stating reported IC50 for CNCc1cccc(N2c3nc(Nc4ccc([C@]5(C)CCN(C)C5=O)cc4)ncc3[C@@]3(C)COC(C)(C)C[C@@H]23)n1 (single isomer, unassigned) [Example 78] .
### Response < 0.01 µM

### Prompt Give a short answer stating reported IC50 for CC1(C)C[C@H]2N(c3cccc(N=S(C)(C)=O)n3)c3nc(NC(=O)[C@@H]4C[C@H]4c4ccccc4)ncc3[C@@]2(C)CO1 (single isomer, unassigned) [Example 396] .
### Response < 0.01 µM

###

- Tested on: phosphorylation of Cdc2 Y15 (Wee1 substrate) in A427 cells
- protocol details: Phosphorylated Cdc2 MSD Electrochemiluminescence Assay
- Type: cell-based
- experimental context: Homo sapiens, A-427, pCDC2 MSD
pIC50: −log10 of the molar value.
Attribute: pIC50

The cases that follow already have their pIC50 on record.
compound	target	measurement type	result
CNCc1cccc(N2c3nc(Nc4ccc(N5C[C@H]6C[C@@H]5CO6)cc4)ncc3[C@@]3(C)COC(C)(C)C[C@@H]23)n1 (single isomer, unassigned) [Example 44]	phosphorylation of Cdc2 Y15 (Wee1 substrate) in A427 cells	pIC50	> 7.00
Cc1cc(Nc2ncc3c(n2)N(c2cccc(N=S(C)(C)=O)n2)[C@@H]2CC(C)(C)OC[C@]32C)ccc1N1CCN(C)CC1 (single isomer, unassigned) [Example 106]	phosphorylation of Cdc2 Y15 (Wee1 substrate) in A427 cells	pIC50	> 7.00
C[C@H]1COC(=O)N1c1cccc(N2c3nc(Nc4ccc(C5CCN(C)CC5)cc4)ncc3[C@@]3(C)COC(C)(C)C[C@@H]23)n1 (single isomer, unassigned) [Example 251]	phosphorylation of Cdc2 Y15 (Wee1 substrate) in A427 cells	pIC50	6.00 to 7.00
CC1(C)C[C@H]2N(c3cccc([C@@H]4CCCN4)n3)c3nc(Nc4ccn(C5CCOCC5)c(=O)c4)ncc3[C@@]2(C)CO1 (single isomer, unassigned) [Example 392]	phosphorylation of Cdc2 Y15 (Wee1 substrate) in A427 cells	pIC50	5.00 to 6.00

Now look at this one.
### Prompt Give a short answer stating reported pIC50 for [2H]C([2H])([2H])N1CCC(c2ccc(Nc3ncc4c(n3)N(c3cccc(N=S(C)(C)=O)n3)[C@@H]3CC(C)(C)OC[C@]43C)cc2)CC1 (single isomer, unassigned) [Example 162] .
### Response > 7.00

###

Attribute: IC50
- target: Wee1 kinase domain (Homo sapiens)
- Construct: Wee1 kinase domain was purchased from Carna (catalog #05-177); purchased Carna 05-177
- protocol details: Wee1 Kinase Biochemical Assay (ADP-Glo)
- experimental context: Wee1 kinase domain, 15 uM ATP, ADP-Glo

compound	IC50
C[C@H]1COC(=O)N1c1cccc(N2c3nc(Nc4ccc(N5CCN(C)CC5)nc4)ncc3[C@]3(C)COC(C)(C)C[C@H]23)n1 (single isomer, unassigned)	100 to 1000 nM

### Prompt Give a short answer stating reported IC50 for C[C@H]1COC(=O)N1c1cccc(N2c3nc(Nc4ccn(C5CCN(C)CC5)c(=O)c4)ncc3[C@]3(C)COC(C)(C)C[C@H]23)n1 (single isomer, unassigned) .
### Response 10 to 100 nM

### Prompt Give a short answer stating reported IC50 for CNCc1cccc(N2c3nc(Nc4ccc(N5C[C@@H](C)O[C@@H](C)C5)cc4)ncc3[C@]3(C)COC(C)(C)C[C@H]23)n1 [Example 19] .
### Response 100 to 1000 nM

### Prompt Give a short answer stating reported IC50 for C[C@H]1COC(=O)N1c1cccc(N2c3nc(Nc4ccc([C@H]5CCN(C)C5)nc4)ncc3[C@@]3(C)COC(C)(C)C[C@@H]23)n1 (single isomer, unassigned) .
### Response < 10 nM

### Prompt Give a short answer stating reported IC50 for CN1CCC(c2ccc(Nc3ncc4c(n3)N(c3cccc(N=S(C)(C)=O)n3)[C@@H]3CC(C)(C)OC[C@]43C)cc2)CC1 (single isomer, unassigned) .
### Response 10 to 100 nM
